# Test system: Vero E6 infected with SARS-CoV-2
# EXPERIMENT: SARS-CoV-2 infection rate relative to infected DMSO; higher = more infection, active = 60 or less
# SETTINGS: 24 h
# Lookup of reported SARS-CoV-2 infection rate keyed by entry
Kindly provide the numeric value in % only, without the unit symbol.

// below: answered compounds
Cc1sc(N)c(C(=O)c2cccc(C(F)(F)F)c2)c1C (10 µM) | 99
C[S+](C)CC[C@H](N)C(=O)O [cabagin] (10 µM) | 109
CCCOc1ccc(C(=O)OCCN(CC)CC)cc1N [proxymetacaine] (10 µM) | 108

Prompt: Lookup: SARS-CoV-2 infection rate / Vero E6 infected with SARS-CoV-2 / CC[C@H](CO)Nc1nc(Nc2cccc(-c3ccccn3)c2)c2ncn(C(C)C)c2n1 (10 µM)
Response: 116

Prompt: Lookup: SARS-CoV-2 infection rate / Vero E6 infected with SARS-CoV-2 / CCc1ccc(/C=C2/SC(=S)NC2=O)cc1 (10 µM)
Response: 92.5
